# system: Dual specificity protein phosphatase 6 (Homo sapiens, UniProt Q16828)
# Sequence (Q16828 whole entry): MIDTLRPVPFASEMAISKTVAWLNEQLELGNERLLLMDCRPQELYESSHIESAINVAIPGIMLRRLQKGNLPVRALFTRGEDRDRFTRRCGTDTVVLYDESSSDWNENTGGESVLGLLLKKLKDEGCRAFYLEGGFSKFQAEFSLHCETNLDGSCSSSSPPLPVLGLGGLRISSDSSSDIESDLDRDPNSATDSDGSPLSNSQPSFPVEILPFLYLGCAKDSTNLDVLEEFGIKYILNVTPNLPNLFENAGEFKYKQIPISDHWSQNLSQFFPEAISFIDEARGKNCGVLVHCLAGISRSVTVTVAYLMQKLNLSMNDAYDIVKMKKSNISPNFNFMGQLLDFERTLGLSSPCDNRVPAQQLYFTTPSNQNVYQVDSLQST
# protocol-notes: Inhibition of recombinant MKP3 (unknown origin) using OMFP as substrate after 1 hr by fluorescence assay
pIC50: −log10 of the molar value.
recorded-metric: pIC50

Qu. Find the measured pIC50: item COc1ccc(-c2nnc(Nc3nc4c(F)cccc4s3)o2)cc1 , target or system Dual specificity protein phosphatase 6 (Homo sapiens, UniProt Q16828).
Ans. < 4.00

###

# system: UniProtKB P18031
# protocol-notes: Inhibition of recombinant human PTP1B assessed as hydrolysis of DiFMUP preincubated for 10 mins followed by DiFMUP addition measured after 5 mins by fluorescence assay
recorded-metric: pIC50
Reminder that pIC50 means the negative base-10 logarithm of the concentration expressed in mol/L.

Qu. So what's the measured pIC50 for this one? CN1C(=O)/C(=C\c2ccc(OCc3ccc(C4CCCCC4)cc3)cc2)S/C1=N/c1ccc(CC(=O)O)cc1
Ans. 6.62

###

# system: UniProt P54829
# Sequence (P54829 whole entry): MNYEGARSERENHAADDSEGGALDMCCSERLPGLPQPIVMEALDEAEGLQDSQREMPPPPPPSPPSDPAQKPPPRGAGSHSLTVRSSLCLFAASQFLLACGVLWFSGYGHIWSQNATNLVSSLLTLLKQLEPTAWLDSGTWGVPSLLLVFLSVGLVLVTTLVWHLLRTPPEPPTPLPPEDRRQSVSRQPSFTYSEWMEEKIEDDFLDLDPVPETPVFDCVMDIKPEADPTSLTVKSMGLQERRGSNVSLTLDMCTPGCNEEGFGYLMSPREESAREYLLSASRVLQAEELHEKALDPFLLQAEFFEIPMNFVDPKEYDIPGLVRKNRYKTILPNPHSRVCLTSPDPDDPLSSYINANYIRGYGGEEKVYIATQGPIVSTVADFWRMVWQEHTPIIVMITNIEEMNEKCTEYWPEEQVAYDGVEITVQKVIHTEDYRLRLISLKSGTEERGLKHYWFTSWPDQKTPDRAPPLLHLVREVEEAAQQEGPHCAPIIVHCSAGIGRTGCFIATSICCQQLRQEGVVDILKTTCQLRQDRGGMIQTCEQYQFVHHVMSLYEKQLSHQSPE
# protocol-notes: Inhibition of recombinant STEP (unknown origin) using OMFP as substrate after 1 hr by fluorescence assay
recorded-metric: IC50

Qu. So what's the measured IC50 for this one? COc1ccc(-c2nnc(Nc3nc4c(F)cccc4s3)o2)cc1
Ans. > 100 µM

###

# system: Dual specificity protein phosphatase 3 (Homo sapiens, UniProt P51452)
# Sequence (P51452 whole entry): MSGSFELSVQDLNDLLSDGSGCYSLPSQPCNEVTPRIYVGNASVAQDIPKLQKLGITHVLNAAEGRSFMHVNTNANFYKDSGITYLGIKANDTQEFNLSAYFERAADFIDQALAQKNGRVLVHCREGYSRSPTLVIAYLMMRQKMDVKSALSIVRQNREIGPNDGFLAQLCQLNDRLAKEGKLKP
# protocol-notes: Inhibition of recombinant VHR (unknown origin) using OMFP as substrate after 1 hr by fluorescence assay
recorded-metric: pIC50
Recall that pIC50 is obtained by taking minus log10 of the concentration measured in molar.

Qu. pIC50 for COc1ccc(-c2nnc(Nc3nc4c(OC)cccc4s3)o2)cc1 ?
Ans. 5.57

###

# system: Dual specificity protein phosphatase 22 (Homo sapiens, UniProt Q9NRW4)
# Sequence (Q9NRW4 whole entry): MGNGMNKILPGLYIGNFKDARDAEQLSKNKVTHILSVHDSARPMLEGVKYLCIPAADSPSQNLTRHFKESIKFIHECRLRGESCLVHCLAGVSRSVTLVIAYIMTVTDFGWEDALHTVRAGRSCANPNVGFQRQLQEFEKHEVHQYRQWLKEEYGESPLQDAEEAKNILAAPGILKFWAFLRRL
# protocol-notes: Inhibition of recombinant VHX (unknown origin) using OMFP as substrate after 1 hr by fluorescence assay
recorded-metric: IC50 (µM)
Numbers only; they are read as µM.

Qu. Name the recorded IC50 for COc1ccc(-c2nnc(Nc3nc4c(F)cccc4s3)o2)cc1 .
Ans. 26

###

# system: Tyrosine-protein phosphatase non-receptor type 1 (Homo sapiens, UniProt P18031)
# Sequence (P18031 whole entry): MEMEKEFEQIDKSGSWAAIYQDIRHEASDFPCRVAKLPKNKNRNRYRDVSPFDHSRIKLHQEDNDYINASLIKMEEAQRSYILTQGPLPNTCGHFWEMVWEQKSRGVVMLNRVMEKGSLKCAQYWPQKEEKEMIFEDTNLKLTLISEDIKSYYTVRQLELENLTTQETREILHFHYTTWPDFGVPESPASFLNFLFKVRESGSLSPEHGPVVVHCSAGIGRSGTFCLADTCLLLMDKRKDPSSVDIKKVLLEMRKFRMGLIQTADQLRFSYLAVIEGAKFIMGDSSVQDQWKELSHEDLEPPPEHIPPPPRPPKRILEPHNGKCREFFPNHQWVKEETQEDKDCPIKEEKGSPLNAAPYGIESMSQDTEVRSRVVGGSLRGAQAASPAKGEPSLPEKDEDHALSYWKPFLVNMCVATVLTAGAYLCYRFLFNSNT
# protocol-notes: Inhibition of recombinant PTP1B (unknown origin) using OMFP as substrate after 1 hr by fluorescence assay
recorded-metric: IC50

Qu. Name the reported IC50 value associated with the compound COc1ccc(-c2nnc(Nc3nc4c(F)cccc4s3)o2)cc1
Ans. > 100 µM

###

# system: Tyrosine-protein phosphatase non-receptor type 2 (Homo sapiens)
# Sequence (P17706 whole entry): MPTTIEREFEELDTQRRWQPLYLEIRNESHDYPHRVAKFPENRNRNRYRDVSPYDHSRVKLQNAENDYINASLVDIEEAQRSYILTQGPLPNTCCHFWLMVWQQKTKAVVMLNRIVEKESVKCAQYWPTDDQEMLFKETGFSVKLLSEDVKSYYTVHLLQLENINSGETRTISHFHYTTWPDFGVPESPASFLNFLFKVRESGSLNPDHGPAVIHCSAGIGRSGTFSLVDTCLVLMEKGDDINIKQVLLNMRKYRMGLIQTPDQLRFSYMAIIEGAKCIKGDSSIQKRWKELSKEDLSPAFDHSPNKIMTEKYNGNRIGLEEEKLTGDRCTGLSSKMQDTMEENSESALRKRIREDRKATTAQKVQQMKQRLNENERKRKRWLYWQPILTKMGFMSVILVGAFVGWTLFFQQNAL
# protocol-notes: Inhibition of recombinant TCPTP (unknown origin) using OMFP as substrate after 1 hr by fluorescence assay
recorded-metric: pIC50
Convention used: pIC50 is expressed as -log10 of the molar concentration.

Qu. # input compound: COc1ccc(-c2nnc(Nc3nc4c(F)cccc4s3)o2)cc1 ; wanted: its pIC50
Ans. 4.26

###

# system: UniProt P35236
# Sequence (P35236 whole entry): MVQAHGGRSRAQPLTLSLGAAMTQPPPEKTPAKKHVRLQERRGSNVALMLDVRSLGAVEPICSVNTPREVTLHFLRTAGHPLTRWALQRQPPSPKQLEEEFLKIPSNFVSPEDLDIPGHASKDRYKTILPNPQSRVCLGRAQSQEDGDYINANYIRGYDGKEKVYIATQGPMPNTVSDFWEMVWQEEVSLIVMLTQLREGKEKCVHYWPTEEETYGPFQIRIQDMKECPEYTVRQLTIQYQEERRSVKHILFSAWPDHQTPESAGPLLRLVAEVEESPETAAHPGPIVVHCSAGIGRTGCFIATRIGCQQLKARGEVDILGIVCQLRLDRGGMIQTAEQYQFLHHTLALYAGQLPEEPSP
# protocol-notes: Inhibition of recombinant HePTP (unknown origin) using OMFP as substrate after 1 hr by fluorescence assay
recorded-metric: IC50 (µM)
Express the result in µM but write the number alone.

Qu. # get_value(readout='IC50', item= COc1ccc(-c2nnc(Nc3nc4c(F)cccc4s3)o2)cc1 )
Ans. 38

###

# system: Receptor-type tyrosine-protein phosphatase R (Homo sapiens, UniProt Q15256)
# Sequence (Q15256 whole entry): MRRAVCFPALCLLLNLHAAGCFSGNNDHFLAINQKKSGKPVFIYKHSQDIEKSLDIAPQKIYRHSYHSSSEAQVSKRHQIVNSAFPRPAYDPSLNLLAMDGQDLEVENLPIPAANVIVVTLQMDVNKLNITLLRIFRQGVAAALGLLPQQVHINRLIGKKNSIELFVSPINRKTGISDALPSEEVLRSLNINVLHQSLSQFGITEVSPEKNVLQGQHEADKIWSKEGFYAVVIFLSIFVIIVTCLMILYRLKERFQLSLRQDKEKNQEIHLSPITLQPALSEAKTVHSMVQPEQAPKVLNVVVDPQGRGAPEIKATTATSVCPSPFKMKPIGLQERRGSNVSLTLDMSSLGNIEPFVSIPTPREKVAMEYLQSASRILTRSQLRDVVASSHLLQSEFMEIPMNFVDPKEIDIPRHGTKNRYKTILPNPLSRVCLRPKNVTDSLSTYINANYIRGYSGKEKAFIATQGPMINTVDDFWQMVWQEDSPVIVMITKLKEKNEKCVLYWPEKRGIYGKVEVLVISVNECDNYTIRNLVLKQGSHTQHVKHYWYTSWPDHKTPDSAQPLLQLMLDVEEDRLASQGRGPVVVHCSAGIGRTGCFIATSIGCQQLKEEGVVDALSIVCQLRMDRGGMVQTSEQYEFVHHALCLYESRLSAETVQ
# protocol-notes: Inhibition of recombinant PTP-SL (unknown origin) using OMFP as substrate after 1 hr by fluorescence assay
recorded-metric: IC50 (µM)
The answer is to be given in µM; state only the numeric part.

Qu. Query for Receptor-type tyrosine-protein phosphatase R (Homo sapiens, UniProt Q15256): what IC50 does the record show for COc1ccc(-c2nnc(Nc3nc4c(F)cccc4s3)o2)cc1 ?
Ans. 13

From: ChEMBL document CHEMBL3425500
